src = patent US20220017636A1

The following binders are shown together with reported Signal/background values.
measurement_target: T1, ADF peptide complexed with HLA-A*02:01 on T2 cells (human)
T1 construct: whole, on cells
assay_details: flow cytometry, peptide-loaded T2 cells;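 also: binding of single-chain Fv antibody constructs, raised in XenoMouse, to peptide-pulsed T2 cells measured by flow cytometry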
Would you mind answering with just the numeric figure?

# binder, measured_number
data = [
    ("18179-A7 (scFv, scFv in bacterial lysate, detected with anti-Flag M2) scFv: EVQLLESGGGLVKPGGSLRLSCAASGFTFSNAWMSWVRQAPGKGLEWVGRIKGNTYGGTTDYAAPVKGRFTISRDDSKNTLFLQMNSLKTEDTAVYYCTTPSYSGSYYNYFSVMDVWGQGTTVTVSSGGGGSGGGGSGGGGSELVMTQSPSSLSASVGDRVTITCRTSQSISSYLNWYQQKPGRAPKLLIFAASSLQGGVPSRFSGSGSGTDFTLTISSLQPEDFATYYCQQTYSMPFTFGPGTKVDIK", 1),
    ("18081-H11 (scFv, scFv in bacterial lysate, detected with anti-Flag M2) scFv: EVQLLESGPALVKPTQTLTLTCTFSGFSFTTHKMGVDWIRQPPGKALEWLALIYWNDDKRYSPSLQSRLTITKDTSKNQVVLTMTNMDPVDTATYYCAYRRYNWNYENWFDPWGQGTLVTVSSGGGGSGGGGSGGGGSELQMTQSPSSLSASVGDRVTITCQASQDISNYLNWYQQKPGKAPKLLIYAASSLQSGVPSRFSGSGSGTDFTLTISSLQPEDFATYYCQQSYTTPFTFGPGTKVEIK", 0.9),
]

Next up:
Recorded Signal/background for 18081-B9 (scFv, scFv in bacterial lysate, detected with anti-Flag M2) scFv: EVQLLESGPGLVKPSETLSLTCTVSGDSISSSRYYWGWIRQPPGKGLEWIGSIYYSGSTYYNPSLKSRVTISVDTSKNQFSLKLSSVTAADTAVYYCARGIFGVITYFDYWGQGTLVTVSSGGGGSGGGGSGGGGSELVMTQSPDSLAVSLGERATINCKSSQSVLYSSNNKNYLAWYQQKPGQPPKLLIYWASTRESGVPDRFSGSGSGTDFTLTISSLQAEDVAVYYCQQFYSTPITFGQGTRLEIK , please?
1
